# target_under_test: CETP (Homo sapiens, UniProt P11597)
# Sequence (P11597 18-493): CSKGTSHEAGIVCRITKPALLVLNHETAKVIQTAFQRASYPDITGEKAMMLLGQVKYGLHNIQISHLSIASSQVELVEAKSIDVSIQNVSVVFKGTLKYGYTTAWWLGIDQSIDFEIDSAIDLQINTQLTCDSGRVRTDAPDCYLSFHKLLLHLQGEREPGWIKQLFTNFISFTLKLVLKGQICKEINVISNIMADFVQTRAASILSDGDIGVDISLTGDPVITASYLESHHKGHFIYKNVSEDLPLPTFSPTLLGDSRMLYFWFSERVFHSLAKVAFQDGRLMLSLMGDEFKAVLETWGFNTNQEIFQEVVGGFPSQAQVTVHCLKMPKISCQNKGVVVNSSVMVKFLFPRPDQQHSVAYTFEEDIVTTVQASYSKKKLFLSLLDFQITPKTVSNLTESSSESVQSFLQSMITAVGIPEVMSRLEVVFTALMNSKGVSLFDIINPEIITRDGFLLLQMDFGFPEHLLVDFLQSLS
# protocol_summary: Transfer of CE from HDL to LDL, scintillation proximity assay
# Format: biochemical
# condition_set: read-out: IC50 for transfer of CE from HDL to LDL by rhCETP; mean ± SEM; CETP 0.5 µg/ml, 3 h at 37°C
pIC50: −log10 of the molar value.
measured_metric: pIC50

>>> value_reported("CCC(CC)CC1(C(=O)Nc2ccccc2SSc2ccccc2NC(=O)C2(CC(CC)CC)CCCCC2)CCCCC1 [dalcetrapib-disulfide]")
7.45
>>> value_reported("CCC(CC)CC1(C(=O)Nc2ccccc2S)CCCCC1 [dalcetrapib-thiol]")
7.63

====

# target_under_test: C13S CETP (Homo sapiens, UniProt P11597, C30S)
# Sequence (P11597 18-493 C30S): as the sequence (P11597 18-493) above, with C13S counted along it
# protocol_summary: Transfer of CE from HDL to LDL, scintillation proximity assay, C13S mutant
# Assay type: biochemical
measured_metric: IC50

>>> value_reported("CCC(CC)CC1(C(=O)Nc2ccccc2SC(=O)C(C)C)CCCCC1 [dalcetrapib]")
"> 100 µM"

====

# target_under_test: CETP (Homo sapiens)
# protocol_summary: Transfer of CE from HDL to LDL, scintillation proximity assay
# Type: biochemical
pIC50: −log10 of the molar value.
measured_metric: pIC50

>>> value_reported("CCC(CC)CC1(C(=O)Nc2ccccc2SC(=O)C(C)C)CCCCC1 [dalcetrapib]")
6.69

====

# target_under_test: C13S CETP (Homo sapiens, UniProt P11597, C30S)
# protocol_summary: Transfer of CE from HDL to LDL, scintillation proximity assay, C13S mutant
# Format: biochemical
# condition_set: read-out: IC50 for transfer of CE from HDL to LDL by C13S CETP mutant; mean ± SEM; CETP 0.5 µg/ml, 3 h at 37°C
measured_metric: IC50

>>> value_reported("CCC(CC)CC1(C(=O)Nc2ccccc2S)CCCCC1")
"> 100 µM"
>>> value_reported("CCC(CC)CC1(C(=O)Nc2ccccc2SSc2ccccc2NC(=O)C2(CC(CC)CC)CCCCC2)CCCCC1 [dalcetrapib-disulfide]")
"> 100 µM"
